Tested on: zebrafish larvae
measurement-description: Light/Dark Stress Response (5 min alternating pulses of dark and light for 30 min)
Assay type: in vivo
Parameters: key: +: statistically significant increase; −−: statistically significant decrease
condition-summary: Med
quantity-measured: Light/Dark Stress Response

>  <compound>
CCCCCCCCCCCCCCCC(=O)NCCO [N-palmitoyl ethanolamide (PEA), N-palmitoyl ethanolamide]

>  <measured-on>
zebrafish larvae

>  <reported-measurement>
+

$$$$
>  <compound>
O=c1cc(-c2ccccc2)oc2cc(O)c(O)c(O)c12

>  <measured-on>
zebrafish larvae

>  <reported-measurement>
−−

$$$$
>  <compound>
O=C(/C=C/C=C/c1ccc2c(c1)OCO2)N1CCCCC1

>  <measured-on>
zebrafish larvae

>  <reported-measurement>
−−

$$$$
>  <compound>
C=C(C)[C@@H]1CCC(C)=C[C@H]1c1c(O)cc(CCCCC)cc1O [cannabidiol (CBD), cannabidiol, reference compound]

>  <measured-on>
zebrafish larvae

>  <reported-measurement>
−−

$$$$
